The reported measurements were obtained from a melting point compilation (Tetko et al.).

readout-kind: melting point (°C)

smiles_string=CC(C)(C)N(NC(=O)c1ccccc1)C(=O)c1ccccc1Cl readout_kind="melting point" scale_unit=°C meas_value=162

A = COc1ccc(C(C)=O)cc1F
B = COc1nccnc1NS(=O)(=O)c1ccc(N)cc1
C = C=C1CCC(=O)O1
Rank descending by melting point. Output spec: a listing of the labels in the requested order.
B, A, C
(B: 176 °C, A: 92 °C, C: 18 °C)

----------
readout-kind: melting point

Solved entries:
molecule="COc1ccc(C2=CCC3(C)C(CCC4C5CCC(O)C5(C)CCC43)C2)cc1 (stereo unspecified)" meas_value="163 to 169 °C"
molecule="Cc1ccc2c(c1)OC(C)(c1ccc(C)cc1OC(=O)[C@]13CC[C@](C)(C(=O)O1)C3(C)C)CC2(C)C (stereo partly specified)" meas_value="136 °C"
molecule=Cc1cc(Br)cc(N)c1N meas_value="63 to 64 °C"

Write down melting point measured for item Cc1nn(C)c(Cl)c1N=Nc1ccccc1
44 to 46 °C

Look up melting point of Cc1ccc(Cc2ccc(CP(=O)(c3ccccc3)c3ccccc3)o2)o1 and report it.
220 to 221 °C

Query melting point for S=C=Nc1ccc2c(c1)OCO2
57 to 59 °C
